From: patent US20240417484A1

- systemUnderTest: T1, human CD73 on cells (CD73-transfected HEK cells; native on PBMCs; OCI-AML3 cells) (human, UniProt P21589 27-549)
- T1 construct: also called NT5E; gene ID 4907
- T1 sequence: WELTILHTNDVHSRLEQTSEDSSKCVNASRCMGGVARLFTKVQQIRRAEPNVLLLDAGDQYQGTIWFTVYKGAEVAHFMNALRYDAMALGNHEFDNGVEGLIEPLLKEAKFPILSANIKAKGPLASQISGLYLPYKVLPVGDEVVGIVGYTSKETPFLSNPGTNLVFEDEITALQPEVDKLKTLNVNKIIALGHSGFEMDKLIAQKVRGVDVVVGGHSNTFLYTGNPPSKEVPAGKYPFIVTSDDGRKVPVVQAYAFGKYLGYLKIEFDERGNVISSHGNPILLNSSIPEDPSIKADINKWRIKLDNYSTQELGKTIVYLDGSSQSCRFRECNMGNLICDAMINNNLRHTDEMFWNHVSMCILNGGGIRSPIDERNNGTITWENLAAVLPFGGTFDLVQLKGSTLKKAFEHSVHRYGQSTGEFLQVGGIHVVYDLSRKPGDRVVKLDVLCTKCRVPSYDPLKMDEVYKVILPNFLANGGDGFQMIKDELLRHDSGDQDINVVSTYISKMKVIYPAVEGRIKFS
- procedureSummary: flow cytometry, human CD73-expressing cells; competitor: human IgG hcAb SB96
- Method: The binding specificities of the purified hcAbs were determined by flow cytometry using HEK cells transiently co-transfected with expression vectors for GFP and either mouse CD73, human CD73 or a control protein (CD39). 1×10⁶ cells were incubated with 10 μl of the Nb-rbIgG hcAb containing HEK-6E cell supernatants for 30 min at 4° C. […] The cells were resuspended in PBS and analyzed by flow cytometry on FACS Canto or FACS Celesta (BD Biosciences, Heidelberg). […]
experimentalEndpoint: percent inhibition of binding (%)
Write it as a number; the unit % goes unstated.

Record SB139 rabbit IgG hcAb (Fc fusion, not shown: hinge and Fc-domains of rabbit IgG) heavy: QVQLQESGGGLVQAGGSLRLSCAASENIFNIYGMGWYRQAPGKLRDLVAKITSGGRTTYADSVKGRFTISGDNAKNTVYLQMNSLKPEDTAVYYCNSYYYWGQGTQVTVSS . Reported percent inhibition of binding: 76

Record SB116 rabbit IgG hcAb (Fc fusion, also called SB116-rbFc; dimeric SB116 Fc construct; not shown: hinge and Fc-domains of rabbit IgG) heavy: QVKLQESGGGRVQTGGSLRLSCAASGISFSITTMYWYRQAPGEQRQLVALITDRGNTYYVDSVKGRFTISRDDSKNTVYLQMNDLKPEDTAVYFCNSIPGNDWGQGTQVTVSS . Reported percent inhibition of binding: 100

Record SB143 rabbit IgG hcAb (Fc fusion, not shown: hinge and Fc-domains of rabbit IgG) heavy: QVQLVESGGGLVQAGGSLRLSCAASGRTFSRSTMGWFRQAPGKERVFVAAIRWIGGTTTYGDSVKGRFTISVDNAKNTLYLQMNSLKPEDTAVYYCAATAGGPYYLGGRDILYDYWGQGTQVTVSS . Reported percent inhibition of binding: 100

Record SB121 rabbit IgG hcAb (Fc fusion, not shown: hinge and Fc-domains of rabbit IgG) heavy: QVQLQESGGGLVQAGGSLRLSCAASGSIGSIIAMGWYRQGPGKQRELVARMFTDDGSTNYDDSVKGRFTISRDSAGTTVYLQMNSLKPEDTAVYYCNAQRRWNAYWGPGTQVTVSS . Reported percent inhibition of binding: 53

Record SB96 rabbit IgG hcAb (Fc fusion, VHH fused upstream of hinge and Fc of rabbit IgG; also called Nb-rbIgG hcAb SB96; not shown: hinge and Fc-domains of rabbit IgG) heavy: DVQLQASGGGLVQPGGSLRLSCTASGFTLDYLSIGWFRQVPGKEREGVSCINSSGGSTNYADSLKGRLTISRDNAKNTVYLQMNSLKPEDTAVYYCAAHKYYYCSNKVEVFDYWGQGTPVTVSS . Reported percent inhibition of binding: 100

Record SB141 rabbit IgG hcAb (Fc fusion, not shown: hinge and Fc-domains of rabbit IgG) heavy: QVQLVESGGGLVQPGGSLRLSCAASGFTFINYHMSWLRQAPGKGLEWVSEIHSRGDITSYTNSVKGRFTISRDNAKNTLYLQMNSLKFDDTAVYYCARSRDLFNEGEYDYWGRGTQVTVSS . Reported percent inhibition of binding: 13
